Would you kindly list pIC50 for each of these molecules?
Target under test: mouse TRPM3α2 (mTRPM3) ion channel (Mus musculus (Mouse))
Sequence (J9SQF3 other isoform, or with tags, fused parts or gaps): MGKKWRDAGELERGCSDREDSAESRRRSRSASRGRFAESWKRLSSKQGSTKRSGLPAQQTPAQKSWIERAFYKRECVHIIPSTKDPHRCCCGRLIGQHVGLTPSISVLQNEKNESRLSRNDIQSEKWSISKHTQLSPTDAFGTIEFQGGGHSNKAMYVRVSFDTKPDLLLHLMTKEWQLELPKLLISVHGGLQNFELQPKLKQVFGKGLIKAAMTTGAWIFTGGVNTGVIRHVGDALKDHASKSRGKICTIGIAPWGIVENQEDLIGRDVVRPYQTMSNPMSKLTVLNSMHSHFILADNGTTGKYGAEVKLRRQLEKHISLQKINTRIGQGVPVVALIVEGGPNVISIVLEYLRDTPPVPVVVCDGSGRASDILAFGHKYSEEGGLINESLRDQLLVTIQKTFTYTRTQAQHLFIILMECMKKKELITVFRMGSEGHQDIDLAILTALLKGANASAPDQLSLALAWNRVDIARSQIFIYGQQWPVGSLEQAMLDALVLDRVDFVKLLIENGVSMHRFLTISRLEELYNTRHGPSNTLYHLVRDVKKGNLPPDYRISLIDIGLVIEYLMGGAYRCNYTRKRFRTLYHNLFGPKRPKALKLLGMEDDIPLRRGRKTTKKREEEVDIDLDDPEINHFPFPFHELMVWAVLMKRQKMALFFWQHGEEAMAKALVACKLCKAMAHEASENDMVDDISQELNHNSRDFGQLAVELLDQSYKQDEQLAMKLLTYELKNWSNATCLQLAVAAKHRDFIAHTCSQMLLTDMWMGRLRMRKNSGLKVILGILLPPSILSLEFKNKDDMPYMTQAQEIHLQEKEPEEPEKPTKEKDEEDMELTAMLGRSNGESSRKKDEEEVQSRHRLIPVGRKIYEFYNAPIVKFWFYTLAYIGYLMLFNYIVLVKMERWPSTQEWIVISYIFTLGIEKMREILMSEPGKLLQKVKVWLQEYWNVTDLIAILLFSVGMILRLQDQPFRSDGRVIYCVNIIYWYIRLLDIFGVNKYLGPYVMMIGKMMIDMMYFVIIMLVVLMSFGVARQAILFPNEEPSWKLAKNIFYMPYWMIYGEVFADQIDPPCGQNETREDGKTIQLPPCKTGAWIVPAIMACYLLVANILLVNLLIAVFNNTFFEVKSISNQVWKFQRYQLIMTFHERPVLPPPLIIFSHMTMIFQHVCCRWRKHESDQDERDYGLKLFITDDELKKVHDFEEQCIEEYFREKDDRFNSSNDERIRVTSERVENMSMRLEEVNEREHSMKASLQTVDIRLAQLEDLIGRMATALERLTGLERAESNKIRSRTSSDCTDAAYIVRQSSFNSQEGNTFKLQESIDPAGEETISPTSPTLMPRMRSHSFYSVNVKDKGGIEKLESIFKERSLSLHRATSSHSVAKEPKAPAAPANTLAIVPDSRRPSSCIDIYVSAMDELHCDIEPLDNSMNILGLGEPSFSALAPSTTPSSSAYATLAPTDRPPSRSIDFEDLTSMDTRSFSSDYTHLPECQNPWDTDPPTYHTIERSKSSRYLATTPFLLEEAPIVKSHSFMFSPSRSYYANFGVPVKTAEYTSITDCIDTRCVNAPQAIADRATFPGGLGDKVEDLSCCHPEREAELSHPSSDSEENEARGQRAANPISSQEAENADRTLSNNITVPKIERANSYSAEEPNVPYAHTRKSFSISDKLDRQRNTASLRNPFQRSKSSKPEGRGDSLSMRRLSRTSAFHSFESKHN
Protocol text: TRPM3 ion channel driven Ca2+ uptake, Fluo-4 AM assay, mTRPM3alpha2 overexpressing flip-in HEK293 cells stimulated with pregnenolone sulfate
Format: cell-based
Condition description: PS (50 μM) stimulated, cpds. 500-599
pIC50: −log10 of the molar value.

Known pIC50 results, listed for orientation:
Molecule	Target under test	pIC50
Cc1ncsc1COc1ccc2oc(C)c(C(=O)NCC(C)(C)F)c2c1	mouse TRPM3α2 (mTRPM3) ion channel (Mus musculus (Mouse))	> 6.00
Cc1ncsc1COc1cc(F)c2oc(C)c(C(=O)NC3CCNCC3(F)F)c2c1 (single isomer, unassigned) [cpd 573-En 1]	mouse TRPM3α2 (mTRPM3) ion channel (Mus musculus (Mouse))	> 6.00
Cc1ncsc1COc1ccc2oc(C)c(C(=O)NC3(C(N)=O)COC3)c2c1F	mouse TRPM3α2 (mTRPM3) ion channel (Mus musculus (Mouse))	> 6.00
COc1ncccc1COc1ccc2oc(C)c(C(=O)NC3(CO)COC3)c2c1	mouse TRPM3α2 (mTRPM3) ion channel (Mus musculus (Mouse))	> 6.00
Cc1cc(COc2ccc3oc(C)c(C(=O)NC4CCNCC4(F)F)c3c2)no1 (single isomer, unassigned) [cpd 553-En 2]	mouse TRPM3α2 (mTRPM3) ion channel (Mus musculus (Mouse))	4.70 to 6.00
Cc1oc2ccc(OCc3cccnc3C(F)(F)F)cc2c1C(=O)NC1CCNCC1(F)F (single isomer, unassigned) [cpd 539-En 2]	mouse TRPM3α2 (mTRPM3) ion channel (Mus musculus (Mouse))	> 6.00

Request: Item under review: Cc1oc2ccc(OCC3(C)COC3)cc2c1C(=O)NC1CCNCC1(F)F (single isomer, unassigned) . Reported pIC50?
Result: 4.70 to 6.00
